Tested on: MCF7 breast
Experiment: NCI tumour cell line growth inhibition, 48 h; in the data active = GI50 below about 0.43 µM; inactive = the rest
Give your call using only these classes: Y for active, N for inactive

Use these answered entries as a reference point.
1) CC(=O)c1ccc(Nc2cc(-n3ccnc3)nc3ccccc23)cc1 : N
2) COc1ccccc1C(=O)/C=C/c1cc2cccc(OC)c2[nH]c1=O : Y

We now examine a further molecule.
Request: Dear colleague, could you share the recorded outcome for "O=C1/C(=C\c2ccc(Cl)cc2)CN(C(=S)Nc2ccccc2)C/C1=C\c1ccc(Cl)cc1" when you have a moment?
Result: Y

* * *

Test system: U251 CNS
Test: NCI tumour cell line growth inhibition, 48 h
Measured TGI by item

1. CC1=C(C(=O)Nc2ccc([N+](=O)[O-])cc2)C(c2ccco2)C(C(=O)Nc2ccc([N+](=O)[O-])cc2)=C(C)N1 : > 100 µM
2. O=C(O)CN(c1ccc(Cl)cc1)S(=O)(=O)c1ccccc1 : > 100 µM
3. CC12CC3CC/C(=N\O)C(C1)C3(N1CCOCC1)C/C2=N/O (stereo not given) : > 100 µM
4. Cc1ccc(-c2sc(-c3ccc(C)cc3)c3c2C2CCC3C2)cc1 : > 50 µM
5. O=C1C2=C(c3ccccc31)C(c1cccc(Cl)c1)NC(=S)N2 (stereo not given) : > 100 µM
6. O=c1c(Cl)nnc2sc3ccccc3n12 : 85.3 µM
7. COC(=O)[C@@H]1C=C[C@@H](C#N)n2c(=O)n(-c3ccccc3)c(=O)n21 : > 100 µM
8. CCCCCCCCCCCCc1ccc(C(=O)/C=C/C(=O)O)cc1 : 18.9 µM

Request: Reported TGI for "CCOC(=O)N1CCN(Cc2cc(=O)n3cc(C)ccc3n2)CC1" : what is it?
Result: > 100 µM

Request: Reported TGI for "O=[N+]([O-])c1cccc(N=C2c3ccccc3CN2c2cccc([N+](=O)[O-])c2)c1" : what is it?
Result: > 100 µM

* * *

Tested on: 786-0 renal
Experiment: NCI tumour cell line growth inhibition, 48 h
quantity.name: TGI (µM)
The response must be a number in µM with no trailing unit.

Sample records with TGI:
1) COc1ccc2c(c1)c1nn(CCN(C)C)c3ccc4c(=O)n(CCN(C)C)c(=O)n2c4c13 : 0.136
2) O=C1c2cc3c(cc2-c2c1c1cc(Cl)c(Cl)cc1c(=O)n2CCCn1ccnc1)OCO3 : 11.4
3) O=S(=O)(c1cc(Cl)ccc1Cl)N1CCN(c2ccc(Cl)c(Cl)c2)CC1 : 34.3
4) C[C@H]1[C@H](OC(=O)CCC(=O)O)O[C@@H]2O[C@]3(C)CC[C@H]4[C@H](C)CC[C@@H]1[C@@]24OO3 : 25.8

Request: Reported TGI for N#Cc1ccccc1NC(=O)C(=O)C(C(=O)c1ccccc1-c1ccccc1)C1OC(=O)c2ccccc21 (centres undefined) : what is it?
Result: 33.5

* * *

Tested on: HOP-92 NSCLC
Assay: NCI tumour cell line growth inhibition, 48 h
Rule: TGI under 50 µM gives F, otherwise T.

1) CSC(SC)=C1C(=O)NN=C1C : T
2) COc1c(Cl)ccc(Cl)c1C(=O)NNC(=O)c1c(Cl)c(Cl)c(Cl)c(Cl)c1-c1nc2ccc(C(=O)c3ccccc3)cc2[nH]1 : T
3) O=c1c(Cl)nnc2sc3ccccc3n12 : T
4) COc1cc2cc(Oc3ccc(NC(=O)Nc4ccc(F)c(C(F)(F)F)c4)cc3)c(C)nc2cc1OCCN1CCCCC1 : F
5) O=C1C=C(N2CCCC2)C=C(N2CCCC2)C1 : T
6) Cc1cc2nc(N3C(=O)/C(=C/c4cccc([N+](=O)[O-])c4)N=C3c3ccccc3)sc2cc1C : T
7) Cn1ncc2cc3c(Nc4ccc(Cl)cc4)cccc3nc21 : F
8) COc1cc2cc(Oc3ccc(NC(=O)Nc4cccc(C(F)(F)F)c4)cc3)c(C)nc2cc1OCCN1CCCCC1 : F
9) COc1cc([C@@H]2c3cc4c(cc3[C@H](OC3OC5COC(C(C)C)OC5C(O)C3O)C3COC(=O)[C@@H]32)OCO4)cc(OC)c1O (stereo not given in full) : F

Request: Decide: is the reported value of TGI for "O=C1/C(=C\c2ccc([N+](=O)[O-])cc2)Sc2scc(-c3ccc(O)c(O)c3)[n+]21" equal to or greater than 50 µM?
Result: F
